- Test system: HIV-1 integrase (with human LEDGF/p75)
- ASSAY: blockers of LEDGF/p75-dependent integrase strand transfer – biochemical, TR-FRET, high throughput, primary screen (AID 743269);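 note: signal is the Cy5 over europium emission ratio at 671 and 618 nm; 0% = plate median of compound wells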
- REPORTED_CONDITIONS: TR-FRET IN-LEDGF/p75 DNA integration, Eu/Cy5; at 3.7 µM; hits give high values
About 2,400 (0.65%) of roughly 370,000 compounds were called active. This is one part of a sample in which actives are shown more often than they occur.

MOLECULE: Brc1ccc(C2CC(c3ccccc3)=Nc3ccccc3N2)cc1 (stereo unspecified)
inhibition, %: 5.04
--
MOLECULE: CCOc1c(Br)cc(/C=C2\C(=O)N(CCC#N)N=C2C)cc1OC
inhibition, %: 36
--
MOLECULE: c1ccc(C2=Nc3cccc4cccc(c34)N2)cc1
inhibition, %: 15.3
--
MOLECULE: C=CCN1C(=O)[C@H](CC(=O)N2CCN(C(=O)OCC)CC2)[C@@]2(C(=O)OCC)CCCC=C12
inhibition, %: -0.39
--
MOLECULE: O=C(NCc1ccc(Cl)cc1)C1CCCN(c2nc3ccccc3o2)C1 (stereo unspecified)
inhibition, %: -2.98
--
MOLECULE: O=C(CSc1nnc(COc2ccccc2)n1Cc1ccco1)c1ccc2ccccc2c1
inhibition, %: 1.68

====

- Test system: HIV-1 integrase (with human LEDGF/p75)
- ASSAY: blockers of LEDGF/p75-dependent integrase strand transfer – biochemical, TR-FRET, high throughput, primary screen (AID 743269);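 note: signal is the Cy5 over europium emission ratio at 671 and 618 nm; 0% = plate median of compound wells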
- REPORTED_CONDITIONS: TR-FRET IN-LEDGF/p75 DNA integration, Eu/Cy5; at 3.7 µM
In all, about 370,000 compounds went through this assay and about 2,400 (0.65%) were called active.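 Rule for the calls: active = inhibition above the screen-wide mean plus 3 SD (cut at about 13% in these data); inactive = the rest.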 The sample as a whole holds a higher share of actives than the screen did.
Classes used: active, inactive

MOLECULE: CN(O)C(=S)c1ccccc1
CAT: active
--
MOLECULE: COc1ccc(CCC(C)N2CCc3ccccc3C2)cc1 (configuration not stated)
CAT: inactive
--
MOLECULE: Cc1cc(C)cc(C(=O)NC(=S)Nc2ccc3[nH]c(=O)[nH]c3c2)c1
CAT: inactive
--
MOLECULE: COC(=O)C1CN(Cc2cn(Cc3ccc(F)cc3)nn2)CCS(=O)(=O)N1Cc1ccc(Cl)cc1 (configuration not stated)
CAT: inactive
--
MOLECULE: Cc1cc(C(=O)NN=C/C=C/c2ccco2)n[nH]1
CAT: active
--
MOLECULE: O=S(=O)(c1ccccc1)N1CCC(c2nc3ccccc3o2)CC1
CAT: inactive
--
MOLECULE: O=C(CN1CCC(NC(=O)NCc2ccccc2)CC1)Nc1ccc2c(c1)OCCO2
CAT: inactive
--
MOLECULE: COc1ccc(C2C(C#N)=C(N)Oc3n[nH]c(C)c32)cc1CN1CCN(c2ccc(F)cc2)CC1 (configuration not stated)
CAT: inactive
--
MOLECULE: CC(C)Cn1c(N)c(C(=O)NCc2cccs2)c2nc3ccccc3nc21
CAT: active
--
MOLECULE: Cc1ccc(C(=O)NC(=S)Nc2ccc3[nH]c(=O)[nH]c3c2)cc1C
CAT: active
--
MOLECULE: COc1ccccc1C1C(C#N)=C(N)Oc2c1c(-c1ccccc1)nn2-c1ccccc1 (configuration not stated)
CAT: active
--
MOLECULE: O=C(CCN1C(=O)c2ccccc2C1=O)NCCCn1ccnc1
CAT: inactive
--
MOLECULE: CCOC(=O)C1(Cc2ccccc2)CCN(Cc2cn(C(C)=O)c3ccccc23)CC1
CAT: inactive
--
MOLECULE: O=C(Nc1cccc(Cl)c1)OC1CC2CC1[C@H]1CCCCN1[C@H]2Cc1ccccc1 (some centres not stated)
CAT: inactive
--
MOLECULE: Cc1ccccc1CN1CCCCC(NC(=O)c2cccc(C#N)c2)C1=O (configuration not stated)
CAT: inactive
--
MOLECULE: O=C(NNC(=S)NC1CCCCC1)c1ccccc1Cl
CAT: inactive
--
MOLECULE: CC(C)CNC(=O)COC(=O)/C=C/c1ccco1
CAT: inactive
--
MOLECULE: CC(=O)Nc1ccc(C(=O)Nc2nc(-c3cc(C)n(Cc4ccccc4)c3C)cs2)cc1
CAT: active
--
MOLECULE: CN(C)S(=O)(=O)c1cccc(C(=O)N/N=C\c2ccco2)c1
CAT: inactive
--
MOLECULE: Cc1c(C#N)c(NC(=O)c2ccccc2)n(Cc2ccccc2)c1C
CAT: inactive
--
MOLECULE: Cc1ccc(CSc2nnc(SCC(=O)NN=Cc3cc(Br)ccc3F)s2)cc1
CAT: inactive
--
MOLECULE: O=C(CO/N=C/c1ccccc1O)NNC(=O)c1ccccc1Cl
CAT: inactive
